B1: OR4K15 (parent)
chain: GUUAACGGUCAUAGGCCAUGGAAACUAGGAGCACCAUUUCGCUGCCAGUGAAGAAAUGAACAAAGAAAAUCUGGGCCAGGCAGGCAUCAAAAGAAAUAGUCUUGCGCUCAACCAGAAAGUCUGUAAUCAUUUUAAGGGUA

# Variants of: B1
# Assay summary: self-cleavage, relative activity (ratio to wild type); higher = more cleavage; in vitro, sequencing; the parent is a self-cleaving ribozyme
Property name: self-cleavage

Please review the entries below; each comes with its answer.
1. G41U ... 1.74
2. A78G A89G ... 0.18

Query :: Look up self-cleavage: G31U A111U
Result :: 0.15

Query :: Look up self-cleavage: G79C A116G
Result :: 0.03

Query :: Look up self-cleavage: A24U U57C
Result :: 0.73

Query :: Look up self-cleavage: U26C A30C
Result :: 0.98

Query :: Look up self-cleavage: `G104A`
Result :: 0.04

Query :: Look up self-cleavage: G7U U108C
Result :: 0.02

Cited source: the RNAGym collection of RNA variant scans (doi:10.7554/elife.90254)
